- Test system: JeKo-1 cells
- experiment description: MTT assay, JeKo-1 cells
- Type: cell-based, human
- condition details: Homo sapiens, JeKo-1; MTT assay, 48 hours; read-out: IC50 with respect to the JeKo-1 cells
readout type: pIC50
Schema: pIC50 number; meaning minus log10 of the concentration expressed in molar units.

Problem: Record CCc1c2c(nc3ccc(OC(=O)N4CCC(N5CCCCC5)CC4)cc13)-c1cc3c(c(=O)n1C2)COC(=O)[C@]3(O)CC [irinotecan, reference compound] : what is its pIC50 with JeKo-1 cells?
Solution: 5.30

====

- System: Panc-1 cells
- experiment description: MTT assay, Panc-1 cells
- Format: cell-based, human
- condition details: 48 hours, read-out: IC50 with respect to the Panc-1 cells
readout type: pIC50
Schema: pIC50 number; meaning minus log10 of the concentration expressed in molar units.

Problem: Reported pIC50 for CCCCC/C=C\C=C\C(=O)O[C@H]1C(C)=C[C@]23C(=O)[C@@H](C=C(COC(C)=O)[C@@H](O)[C@]12O)[C@H]1[C@@H](C[C@H]3C)C1(C)C [3EZ,20Ac-ingenol] : what is it?
Solution: 5.52
